Ref: patent US20110118447A1

Recorded fold difference in affinity vs original by entry
measurement_target: binding partner (antigen) of C5A (XPA23)
protocol: Biacore, K-off, fold vs original

>  <binder>
C5A (XPA23) VH G103A (antibody, V domains shown) VH: EVQLLESGGGLVQPGGSLRLSCAASGFTFSKYFMFWVRQAPGKGLEWVSVISPSGGMTRYADSVKGRFTISRDNSKNTLYLQMNSLRAEDTAVYYCARVGYGANSDYWGQGTLVTVSS VL: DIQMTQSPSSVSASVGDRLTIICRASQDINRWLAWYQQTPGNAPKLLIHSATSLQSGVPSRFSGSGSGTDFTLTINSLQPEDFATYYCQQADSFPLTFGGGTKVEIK

>  <fold difference in affinity vs original, fold>
0.03

$$$$
>  <binder>
C5A (XPA23) VH Y107I (antibody, V domains shown) VH: EVQLLESGGGLVQPGGSLRLSCAASGFTFSKYFMFWVRQAPGKGLEWVSVISPSGGMTRYADSVKGRFTISRDNSKNTLYLQMNSLRAEDTAVYYCARVGYGGNSDIWGQGTLVTVSS VL: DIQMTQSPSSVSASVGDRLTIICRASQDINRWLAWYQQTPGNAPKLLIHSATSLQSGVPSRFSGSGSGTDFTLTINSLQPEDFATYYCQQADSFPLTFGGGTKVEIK

>  <fold difference in affinity vs original, fold>
0.96

$$$$
